Where do the numbers come from? From BigSolDB 2.1.

Details: in NMP, 328.15 K
QUANTITY MEASURED: solubility (mole fraction)
Returns: the value as a bare number; no unit string appended.

For the compound shown here, Oc1c(Cl)cc(Cl)c2cccnc12 , give the reported solubility (mole fraction).
0.0188

* * *

Settings: in DMSO, 323.15 K
QUANTITY MEASURED: solubility (mole fraction)

solubility (mole fraction) lookup needed for Oc1c(Cl)cc(Cl)c2cccnc12 , thanks.
0.0123

* * *

Details: in DMF, 293.15 K
QUANTITY MEASURED: solubility (mole fraction)
I'd appreciate a reply containing only the number, no unit.

Give the measured solubility (mole fraction) of Oc1c(Cl)cc(Cl)c2cccnc12 .
0.0132

* * *

Details: in NMP, 318.15 K
QUANTITY MEASURED: solubility (mole fraction)

Need solubility (mole fraction), item Oc1c(Cl)cc(Cl)c2cccnc12
0.0137

* * *

Settings: in water, 318.15 K
QUANTITY MEASURED: solubility (mole fraction)
// response body must contain only the number

Dear colleague, I am looking for the recorded solubility (mole fraction) of the following compound: Oc1c(Cl)cc(Cl)c2cccnc12
5e-06

* * *

Settings: in water, 303.15 K
QUANTITY MEASURED: solubility (mole fraction)

Quick check: solubility (mole fraction) of Oc1c(Cl)cc(Cl)c2cccnc12 ?
2.03e-06

* * *

Conditions: in NMP, 333.15 K
QUANTITY MEASURED: solubility (mole fraction)
Please reply with the number alone, leaving off any unit.

Recorded solubility (mole fraction) for Oc1c(Cl)cc(Cl)c2cccnc12 , please?
0.022

* * *

Settings: in DMF, 318.15 K
QUANTITY MEASURED: solubility (mole fraction)
Lab note: record just the number, no unit beside it.

What value of solubility (mole fraction) has been recorded for this entry: Oc1c(Cl)cc(Cl)c2cccnc12
0.0347

* * *

Details: in NMP, 313.15 K
QUANTITY MEASURED: solubility (mole fraction)
Please give only the number in your answer, with no unit.

Which solubility (mole fraction) reading was recorded for the compound Oc1c(Cl)cc(Cl)c2cccnc12 ?
0.0113

* * *

Conditions: in NMP, 303.15 K
QUANTITY MEASURED: solubility (mole fraction)
When you answer, write just the number.

Form field: reported solubility (mole fraction) of Oc1c(Cl)cc(Cl)c2cccnc12
0.00823

* * *

Settings: in DMSO, 293.15 K
QUANTITY MEASURED: solubility (mole fraction)
Output: the number by itself.

Endpoint output: solubility (mole fraction) of Oc1c(Cl)cc(Cl)c2cccnc12 . Value?
0.00296

* * *

Conditions: in DMSO, 333.15 K
QUANTITY MEASURED: solubility (mole fraction)
Please reply with the number alone, leaving off any unit.

Given Oc1c(Cl)cc(Cl)c2cccnc12 , state its recorded solubility (mole fraction).
0.0188

* * *

Details: in DMSO, 303.15 K
QUANTITY MEASURED: solubility (mole fraction)
API doc: respond with a numeric literal and nothing else, no unit.

What measured solubility (mole fraction) goes with Oc1c(Cl)cc(Cl)c2cccnc12 ?
0.0048

* * *

Settings: in NMP, 298.15 K
QUANTITY MEASURED: solubility (mole fraction)
Output spec: single numeric token, no unit.

Recorded solubility (mole fraction) of Oc1c(Cl)cc(Cl)c2cccnc12 , please.
0.00683

* * *

Details: in 1,4-dioxane, 333.15 K
QUANTITY MEASURED: solubility (mole fraction)

Fill blank: measured solubility (mole fraction) of the compound Oc1c(Cl)cc(Cl)c2cccnc12 is ____.
0.0193

* * *

Conditions: in DMF, 333.15 K
QUANTITY MEASURED: solubility (mole fraction)
// print number alone

Entry Oc1c(Cl)cc(Cl)c2cccnc12 has what solubility (mole fraction)?
0.0555

* * *

Conditions: in water, 328.15 K
QUANTITY MEASURED: solubility (mole fraction)
Give only the figure.

// solubility (mole fraction) lookup, key: Oc1c(Cl)cc(Cl)c2cccnc12
8.91e-06

* * *

Conditions: in DMSO, 313.15 K
QUANTITY MEASURED: solubility (mole fraction)
# respond with the number and nothing more

Item under review: Oc1c(Cl)cc(Cl)c2cccnc12 . Reported solubility (mole fraction)?
0.00793

* * *

Conditions: in DMF, 308.15 K
QUANTITY MEASURED: solubility (mole fraction)
Lab note: jot down the number only; don't add units.

Entry under review: Oc1c(Cl)cc(Cl)c2cccnc12 . Reported solubility (mole fraction)?
0.024

* * *

Settings: in water, 313.15 K
QUANTITY MEASURED: solubility (mole fraction)
I'd appreciate a reply containing only the number, no unit.

Request the reported solubility (mole fraction) associated with Oc1c(Cl)cc(Cl)c2cccnc12
3.82e-06

* * *

Settings: in DMSO, 308.15 K
QUANTITY MEASURED: solubility (mole fraction)
Lab note: write the figure by itself, no unit.

What does the data say about its solubility (mole fraction)? Entry: Oc1c(Cl)cc(Cl)c2cccnc12
0.00633

* * *

Settings: in DMSO, 298.15 K
QUANTITY MEASURED: solubility (mole fraction)
Just the number, please, no unit after it.

Query: solubility (mole fraction); subject: Oc1c(Cl)cc(Cl)c2cccnc12
0.00378

* * *

Settings: in DMF, 298.15 K
QUANTITY MEASURED: solubility (mole fraction)
Please reply with the value in numeric form only.

Field request: solubility (mole fraction) | item: Oc1c(Cl)cc(Cl)c2cccnc12
0.016

* * *

Settings: in 1,4-dioxane, 308.15 K
QUANTITY MEASURED: solubility (mole fraction)
# output: bare number, no unit

I would be grateful if you could share the reported solubility (mole fraction) for Oc1c(Cl)cc(Cl)c2cccnc12 .
0.0089

* * *

Conditions: in DMF, 323.15 K
QUANTITY MEASURED: solubility (mole fraction)
Answer with a bare number; do not write a unit.

Which measured solubility (mole fraction) value corresponds to Oc1c(Cl)cc(Cl)c2cccnc12 ?
0.0408

* * *

Conditions: in 1,4-dioxane, 298.15 K
QUANTITY MEASURED: solubility (mole fraction)
Respond with the number and no other words.

# get_value(readout='solubility (mole fraction)', item= Oc1c(Cl)cc(Cl)c2cccnc12 )
0.0062

* * *

Conditions: in 1,4-dioxane, 303.15 K
QUANTITY MEASURED: solubility (mole fraction)
Give the value as a plain number.

Given Oc1c(Cl)cc(Cl)c2cccnc12 , state its recorded solubility (mole fraction).
0.00736
